Values from patent US20220363763A1

Target: T1, human PD-L1-his taq protein (human, UniProt Q9NZQ7 19-239, limits assumed)
T1 construct: also called recombinant PD-L1 protein; recombinant human PD-L1; not shown: his tag
T1 sequence (Q9NZQ7 19-239 limits assumed): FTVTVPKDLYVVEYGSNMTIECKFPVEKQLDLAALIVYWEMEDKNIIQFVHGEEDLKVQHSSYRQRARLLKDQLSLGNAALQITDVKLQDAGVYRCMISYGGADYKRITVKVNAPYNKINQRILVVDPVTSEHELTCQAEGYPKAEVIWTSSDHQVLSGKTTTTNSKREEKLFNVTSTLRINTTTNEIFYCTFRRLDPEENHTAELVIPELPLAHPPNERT
Assay: SPR Biacore T200, antibody captured, PD-L1-his injected
recordedEndpoint: koff (s⁻¹)

- binder: "Hu1210-17 (antibody, V domains shown, Hu1210 VH.4b x Vk.1; human gamma 1 / kappa constant domains) VH: EVQLVESGGGLVQPGGSLRLSCAASGFTFSSYDMSWVRQAPGKSLEWVATISDGGGYIYYSDSVKGRFTISRDNAKNSLYLQMNSLRDEDTAVYICAREFGKRYALDYWGQGTTVTVSS VL: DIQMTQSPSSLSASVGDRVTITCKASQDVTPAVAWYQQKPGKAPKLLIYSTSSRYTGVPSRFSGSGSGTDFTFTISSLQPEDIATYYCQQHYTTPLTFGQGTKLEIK"
  recordedEndpoint: "koff"
  unitText: "s⁻¹"
  val: "2.13e-05"
- binder: "Hu1210-42 (antibody, V domains shown, Hu1210 VH.4e x Vk.1; human gamma 1 / kappa constant domains) VH: EVQLVESGGGLVQPGGSLRLSCAASGFTFSSYDMSWVRQAPGKSLEWVATISDVGGYIYYSDSVKGRFTISRDNAKNSLYLQMNSLRDEDTAVYICAREFGKRYALDYWGQGTTVTVSS VL: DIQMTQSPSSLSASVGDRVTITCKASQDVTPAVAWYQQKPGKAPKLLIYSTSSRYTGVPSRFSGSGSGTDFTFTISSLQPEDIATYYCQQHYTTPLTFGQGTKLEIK"
  recordedEndpoint: "koff"
  unitText: "s⁻¹"
  val: "7.53e-05"
- binder: "Hu1210-40 (antibody, V domains shown, Hu1210 VH.4c x Vk.1; human gamma 1 / kappa constant domains) VH: EVQLVESGGGLVQPGGSLRLSCAASGFTFSSYDMSWVRQAPGKSLEWVATISEGGGYIYYSDSVKGRFTISRDNAKNSLYLQMNSLRDEDTAVYICAREFGKRYALDYWGQGTTVTVSS VL: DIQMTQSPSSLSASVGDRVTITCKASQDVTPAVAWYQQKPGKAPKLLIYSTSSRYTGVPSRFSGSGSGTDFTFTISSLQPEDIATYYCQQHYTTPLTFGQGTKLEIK"
  recordedEndpoint: "koff"
  unitText: "s⁻¹"
  val: 0.000131
- binder: "Hu1210-41 (antibody, V domains shown, Hu1210 VH.4d x Vk.1; human gamma 1 / kappa constant domains; also called H12; Hu1210 VH.4d x Hu1210 Vk.1) VH: EVQLVESGGGLVQPGGSLRLSCAASGFTFSSYDMSWVRQAPGKSLEWVATISDAGGYIYYSDSVKGRFTISRDNAKNSLYLQMNSLRDEDTAVYICAREFGKRYALDYWGQGTTVTVSS VL: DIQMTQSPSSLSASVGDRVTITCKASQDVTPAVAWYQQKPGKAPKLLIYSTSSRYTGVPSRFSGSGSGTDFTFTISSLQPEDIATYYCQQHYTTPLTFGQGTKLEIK"
  recordedEndpoint: "koff"
  unitText: "s⁻¹"
  val: "3.46e-05"
